Reported tissue to tissue ratio at 24 h is given for each of the following compounds.
Test: in vivo
Details: BALB/c nude, mouse, in vivo, iv, total radioactivity, T/L Tumor/Liver ratio
No unit in the answer, please; the number alone is enough.

compound	tissue to tissue ratio at 24 h
C[C@@H](O)[C@H](NC(=O)[C@@H]1CSSC[C@H](NC(=O)[C@@H](Cc2ccccc2)NC(=O)CCOCCOCCOCCOCCOCCOCCNC(=O)[C@H](CCCCNC(=O)c2cccc(NC(=O)N[C@@H]3CN(C4CCCCC4)c4ccccc4N(CC(=O)C(C)(C)C)C3=O)c2)NC(=O)CN2CCN(CC(=O)O)CCN(CC(=O)O)CCN(CC(=O)O)CC2)C(=O)N[C@@H](Cc2ccc(O)cc2)C(=O)N[C@H](Cc2c[nH]c3ccccc23)C(=O)N[C@@H](CCCCN)C(=O)N[C@@H]([C@@H](C)O)C(=O)N1)C(=O)O [Compound I-40, DOTA-K(Z360)-PEG6-f[CYwKTC]T-OH]	5.7

Okay, next one:
Incoming: Name the reported tissue to tissue ratio at 24 h value associated with the compound C[C@@H](O)[C@H](NC(=O)[C@@H]1CSSC[C@H](NC(=O)[C@@H](Cc2ccccc2)NC(=O)COCCOCCNC(=O)[C@H](CCCCNC(=O)c2cccc(NC(=O)N[C@@H]3CN(C4CCCCC4)c4ccccc4N(CC(=O)C(C)(C)C)C3=O)c2)NC(=O)COCCOCCNC(=O)CN2CCN(CC(=O)O)CCN(CC(=O)O)CCN(CC(=O)O)CC2)C(=O)N[C@@H](Cc2ccc(O)cc2)C(=O)N[C@H](Cc2c[nH]c3ccccc23)C(=O)N[C@@H](CCCCN)C(=O)N[C@@H]([C@@H](C)O)C(=O)N1)C(=O)O [Compound I-52, DOTA-OEG-K(Z360)-OEG-f[CYwKTC]T-OH]
Outgoing: 2.2

* * *

Experiment: in vivo
Settings: BALB/c nude, mouse, in vivo, iv, total radioactivity, uptake Stomach
assayEndpoint: tissue uptake at 24 h (%ID/g)
Kindly provide the numeric value in %ID/g only, without the unit symbol.

Incoming: Name the reported tissue uptake at 24 h value associated with the molecule C[C@@H](O)[C@H](NC(=O)[C@@H]1CSSC[C@H](NC(=O)[C@@H](Cc2ccccc2)NC(=O)[C@H](CCCCNC(=O)COCCOCCNC(=O)COCCOCCNC(=O)c2cccc(NC(=O)N[C@@H]3CN(C4CCCCC4)c4ccccc4N(CC(=O)C(C)(C)C)C3=O)c2)NC(=O)CN2CCN(CC(=O)O)CCN(CC(=O)O)CCN(CC(=O)O)CC2)C(=O)N[C@@H](Cc2ccc(O)cc2)C(=O)N[C@H](Cc2c[nH]c3ccccc23)C(=O)N[C@@H](CCCCN)C(=O)N[C@@H]([C@@H](C)O)C(=O)N1)C(=O)O [Compound I-42, DOTA-K(-OEG-OEG-Z360)-f]CYwKTC]T-OH]
Outgoing: 2.1

* * *

Assay: in vivo
Conditions: BALB/c nude, mouse, in vivo, iv, total radioactivity, uptake Liver
Method: To a 0.5 M NaOAc buffer (20-50 μL, pH=4.5) was added 4 μL of exemplary or comparator compound in DMSO stock solution (2000 μM) and 2 mCi ^177Lu (ITM Isotope Technologies Munich), the resulting mixture was heated to 95° C. for 15 min. The resulting product was analyzed by radio-TLC and radio-HPLC (column: Shim-pack GIST 5 μm 4.6*150 mm; buffer A: 0.2% formic acid H2O; buffer B: 0.1% formic acid acetonitrile; flow rate: 1 mL/min; gradient: 0-5 min: 10% B to 95% B; then 5-8 min: 95% B). […]
assayEndpoint: tissue uptake at 24 h (%ID/g)
Kindly provide the numeric value in %ID/g only, without the unit symbol.

Incoming: Name the reported tissue uptake at 24 h value associated with the compound C[C@@H](O)[C@H](NC(=O)[C@@H]1CSSC[C@H](NC(=O)[C@@H](Cc2ccccc2)NC(=O)[C@H](CCCCNC(=O)c2cccc(NC(=O)N[C@@H]3CN(C4CCCCC4)c4ccccc4N(CC(=O)C(C)(C)C)C3=O)c2)NC(=O)COCCOCCNC(=O)CN2CCN(CC(=O)O)CCN(CC(=O)O)CCN(CC(=O)O)CC2)C(=O)N[C@@H](Cc2ccc(O)cc2)C(=O)N[C@H](Cc2c[nH]c3ccccc23)C(=O)N[C@@H](CCCCN)C(=O)N[C@@H]([C@@H](C)O)C(=O)N1)C(=O)O [Compound I-35, DOTA-OEG-K(Z360)-f[CYwKTC]T-OH]
Outgoing: 5.06
